Give measured Plasmin Z-Score at 50 μM for each item. Keep answers brief.
- assayed_system: Plasmin (Homo sapiens, UniProt P00747)
- Sequence (P00747 581-810 limits assumed): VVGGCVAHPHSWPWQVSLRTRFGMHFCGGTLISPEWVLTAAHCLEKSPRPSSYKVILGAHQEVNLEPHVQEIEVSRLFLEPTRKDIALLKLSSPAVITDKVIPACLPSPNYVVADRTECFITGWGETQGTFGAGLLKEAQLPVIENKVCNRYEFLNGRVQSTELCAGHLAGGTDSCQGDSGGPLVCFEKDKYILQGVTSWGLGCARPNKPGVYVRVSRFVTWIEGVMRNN
- Sequence (P00747 97-580 partner limits assumed): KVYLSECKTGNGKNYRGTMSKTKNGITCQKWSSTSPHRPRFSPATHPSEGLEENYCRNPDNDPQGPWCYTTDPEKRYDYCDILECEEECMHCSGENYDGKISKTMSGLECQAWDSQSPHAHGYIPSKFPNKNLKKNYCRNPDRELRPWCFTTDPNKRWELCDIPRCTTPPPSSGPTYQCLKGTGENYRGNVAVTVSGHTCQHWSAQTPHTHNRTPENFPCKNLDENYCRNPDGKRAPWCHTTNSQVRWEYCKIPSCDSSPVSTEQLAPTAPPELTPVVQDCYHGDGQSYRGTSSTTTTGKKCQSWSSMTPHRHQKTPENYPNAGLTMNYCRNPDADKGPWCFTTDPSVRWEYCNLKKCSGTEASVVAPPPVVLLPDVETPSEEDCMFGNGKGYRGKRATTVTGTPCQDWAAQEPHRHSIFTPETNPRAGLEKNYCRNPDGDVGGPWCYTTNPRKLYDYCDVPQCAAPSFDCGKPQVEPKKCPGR
- experimental_protocol: Plasmin inhibitory activity counter-screen (coupling enzyme)
- Type: biochemical
- details: z-score = number of standard deviations the enzymatic activity falls below the DMSO non-inhibitory control
Give bare numbers.

State recorded Plasmin Z-Score at 50 μM for all listed molecules.
1. O=S(=O)(Nc1ccccc1-c1ccccc1)c1cccs1
2. O=S(=O)(Nc1cc(Cl)ccc1Oc1ccccc1)c1cccs1
3. O=S(=O)(Nc1cc(Cl)ccc1Oc1ccccc1)c1ccc2c(c1)OCCO2
4. O=[N+]([O-])c1ccccc1S(=O)(=O)Nc1cc(Cl)ccc1Oc1ccccc1

Ans.
1: 1.8; 2: 2.5; 3: 4.9; 4: 1.4

====

Please go through the items and note down their inhibition at 50 µM.
- assayed_system: HIV-1 protease (Human immunodeficiency virus type 1 group M subtype B, UniProt P04585)
- Construct: Plasmin, tPA, uPA, Cathepsin D, Cathepsin E, and HIV-1 protease
- experimental_protocol: HIV-1 protease counter-screen
- Type: biochemical
- details: % of the enzymatic activity of a DMSO non-inhibitory control
One number for each entry, in %.

Example entries begin here.
[
  {
    "line_notation": "O=S(=O)(Nc1cc(Cl)ccc1Oc1ccccc1)c1ccc2c(c1)OCCO2",
    "inhibition at 50 µM / %": 10
  },
  {
    "line_notation": "O=S(=O)(Nc1ccccc1-c1ccccc1)c1cccs1",
    "inhibition at 50 µM / %": 2
  },
  {
    "line_notation": "O=[N+]([O-])c1ccccc1S(=O)(=O)Nc1cc(Cl)ccc1Oc1ccccc1",
    "inhibition at 50 µM / %": 11
  }
]

Next, consider the following molecule.
What the record says about `O=S(=O)(Nc1cc(Cl)ccc1Oc1ccccc1)c1cccs1` : inhibition at 50 µM is 13

====

- assayed_system: Y. pestis Pla (Yersinia pestis)
- Sequence (P17811 21-312 limits assumed): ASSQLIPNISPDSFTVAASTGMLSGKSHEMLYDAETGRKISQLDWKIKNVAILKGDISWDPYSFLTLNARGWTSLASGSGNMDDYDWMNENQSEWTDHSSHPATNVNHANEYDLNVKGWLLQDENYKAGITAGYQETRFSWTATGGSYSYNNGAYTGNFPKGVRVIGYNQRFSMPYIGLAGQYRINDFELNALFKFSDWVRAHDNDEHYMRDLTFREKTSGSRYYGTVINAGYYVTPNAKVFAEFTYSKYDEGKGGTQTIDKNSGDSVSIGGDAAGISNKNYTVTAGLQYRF
pIC50: −log10 of the molar value.
Returns Fulfilled if the recorded pIC50 is greater than or equal to 5, and Not fulfilled otherwise.

Qu. Form field: pIC50 at least 5? Entry: COc1ccc(S(=O)(=O)Nc2ccccc2Oc2ccccc2)c(OC)c1 [F]
Ans. Not fulfilled

Qu. Has CC(=O)Nc1ccc(S(=O)(=O)Nc2ccccc2Oc2ccccc2)cc1 [E] a recorded pIC50 greater than or equal to 5?
Ans. Not fulfilled

Qu. Determine whether this molecule has pIC50 no lower than 5: O=S(=O)(Nc1ccccc1-c1ccccc1)c1cccs1 [Compound 2]
Ans. Fulfilled

Qu. Reported pIC50 reaches at least 5 for COc1ccc(S(=O)(=O)Nc2ccccc2Oc2ccccc2)cc1C [C] ?
Ans. Not fulfilled

====

- assayed_system: Pla (Yersinia pestis)
Where a SMILES comes first, the peptide text is derived from it.
# note: boundary value 5 mM maps to NOT MET; Ki below it maps to MET

Some entries whose results are on file:
[
  {
    "compound": "CC(C)[C@H](NC(=O)[C@@H](N)CCCCN)C(=O)O [Lys-Val, reference compound] (H-Lys-Val-OH; C-terminus assumed)",
    "class_name": "NOT MET"
  },
  {
    "compound": "NCCCC[C@H](NC(=O)[C@@H](N)CCCCN)C(=O)O",
    "class_name": "MET"
  }
]

Qu. Would you kindly verify if Ki of CC(C)[C@H](NC(=O)[C@@H](N)CCCNC(=N)N)C(=O)O [Arg-Val] (H-Arg-Val-OH; N-terminus and C-terminus assumed) is strictly less than 5 mM?
Ans. MET

Qu. Consider NCCCC[C@H](N)C(=O)NCC(=O)O [Lys-Gly] (H-Lys-Gly-OH) . Does its Ki lie strictly below 5 mM?
Ans. NOT MET

Qu. Item NCCCC[C@H](NC(=O)[C@@H](N)CCCN=C(N)N)C(=O)O [Arg-Lys] (H-Arg-Lys-OH) : Ki beneath 5 mM, strictly?
Ans. MET

Qu. Report whether reported Ki is lower than 5 mM (strictly) for NC(N)=NCCC[C@H](N)C(=O)NCC(=O)O [Arg-Gly] (H-Arg-Gly-OH)
Ans. NOT MET
